- Target of assay: T1, human CD24 (human, UniProt P25063 27-59, heavily glycosylated, GPI-anchored (as described in the background))
- T1 construct: whole, on cells; Target of all cell-based FACS assays; also called hCD24; Cluster of differentiation 24
- T1 chain (looked up): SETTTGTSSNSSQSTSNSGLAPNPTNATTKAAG
- Assay protocol: FACS, MCF7 cells
Below is a list of entries, each paired with its recorded Max MFI value.
Would you mind answering with just the numeric figure?

Worked cases, Max MFI given:
Binder | Max MFI
71A4F12 (antibody, V domains shown, mouse monoclonal antibody) VH: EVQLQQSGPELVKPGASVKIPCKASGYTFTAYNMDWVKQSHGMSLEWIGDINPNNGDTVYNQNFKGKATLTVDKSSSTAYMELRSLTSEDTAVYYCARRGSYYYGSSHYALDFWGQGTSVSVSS VL: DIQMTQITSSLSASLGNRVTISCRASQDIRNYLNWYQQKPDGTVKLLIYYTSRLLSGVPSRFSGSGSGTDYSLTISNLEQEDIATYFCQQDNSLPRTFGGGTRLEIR | 12600
ch81A1F8-hIgG4 (antibody, V domains shown, chimeric; also called chAb81A1F8; ch81A1F8-IgG4) VH: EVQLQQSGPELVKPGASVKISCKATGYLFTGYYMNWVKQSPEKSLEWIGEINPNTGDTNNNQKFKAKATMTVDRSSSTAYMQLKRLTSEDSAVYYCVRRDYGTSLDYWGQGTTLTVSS VL: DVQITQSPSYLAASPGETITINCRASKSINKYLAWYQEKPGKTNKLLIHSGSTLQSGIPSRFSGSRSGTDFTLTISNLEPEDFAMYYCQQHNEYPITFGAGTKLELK | 25400
ch56A7E3-hIgG4 (antibody, V domains shown, chimeric) VH: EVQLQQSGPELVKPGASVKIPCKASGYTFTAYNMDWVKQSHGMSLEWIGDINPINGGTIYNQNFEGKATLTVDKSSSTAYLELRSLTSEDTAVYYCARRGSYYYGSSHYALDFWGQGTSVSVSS VL: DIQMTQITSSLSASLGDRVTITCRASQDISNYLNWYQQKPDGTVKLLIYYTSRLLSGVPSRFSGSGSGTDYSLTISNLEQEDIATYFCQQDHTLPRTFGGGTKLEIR | 22800

Now take the following binder into account.
Please list Max MFI recorded for the binder ch100F2E3-hIgG4 (antibody, V domains shown, chimeric) VH: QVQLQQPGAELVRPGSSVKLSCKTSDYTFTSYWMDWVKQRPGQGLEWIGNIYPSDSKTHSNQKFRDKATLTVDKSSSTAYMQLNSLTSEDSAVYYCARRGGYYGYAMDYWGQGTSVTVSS VL: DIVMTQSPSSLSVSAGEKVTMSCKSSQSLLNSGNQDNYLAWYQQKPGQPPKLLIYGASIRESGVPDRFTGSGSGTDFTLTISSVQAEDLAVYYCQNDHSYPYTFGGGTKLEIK
7960

All values here come from patent US20240052052A1.
